Assay Remarks: Cytotoxicity against human HuH7 cells assessed as cell viability at 30 uM after 48 hrs by MTT assay
Assay type: cell-based, Huh-7
Test Conditions: read-out: Activity
Quantity Kind: viability at 48 h, 30 µM (%)

• O=[N+]([O-])c1cc(CS(=O)(=O)c2nnnn2C2CCCCC2)cc([N+](=O)[O-])c1 = 43
• O=[N+]([O-])c1cc(CSc2nnnn2C2CCCCC2)cc([N+](=O)[O-])c1 = 128
• O=[N+]([O-])c1cc(C[Se]c2nnnn2Cc2ccccc2)cc([N+](=O)[O-])c1 = 70
• O=[N+]([O-])c1ccc(C[Se]c2nnnn2C2CCCCC2)c([N+](=O)[O-])c1 = 49
• COc1ccc(-n2nnnc2SCc2cc([N+](=O)[O-])cc([N+](=O)[O-])c2)cc1 = 86
• O=[N+]([O-])c1cc(C[S+]([O-])c2nnnn2C2CCCCC2)cc([N+](=O)[O-])c1 (centres undefined) = 84
• O=[N+]([O-])c1cc(CSc2nnnn2-c2ccc(Cl)c(Cl)c2)cc([N+](=O)[O-])c1 = 90
• O=[N+]([O-])c1ccc(CSc2nnnn2C2CCCCC2)c([N+](=O)[O-])c1 = 97
• O=[N+]([O-])c1cc(COc2nnnn2-c2ccc(Cl)c(Cl)c2)cc([N+](=O)[O-])c1 = 111
